Molecular target: Heat shock factor protein 1 (Mus musculus, UniProt P38532)
Sequence (P38532 whole entry): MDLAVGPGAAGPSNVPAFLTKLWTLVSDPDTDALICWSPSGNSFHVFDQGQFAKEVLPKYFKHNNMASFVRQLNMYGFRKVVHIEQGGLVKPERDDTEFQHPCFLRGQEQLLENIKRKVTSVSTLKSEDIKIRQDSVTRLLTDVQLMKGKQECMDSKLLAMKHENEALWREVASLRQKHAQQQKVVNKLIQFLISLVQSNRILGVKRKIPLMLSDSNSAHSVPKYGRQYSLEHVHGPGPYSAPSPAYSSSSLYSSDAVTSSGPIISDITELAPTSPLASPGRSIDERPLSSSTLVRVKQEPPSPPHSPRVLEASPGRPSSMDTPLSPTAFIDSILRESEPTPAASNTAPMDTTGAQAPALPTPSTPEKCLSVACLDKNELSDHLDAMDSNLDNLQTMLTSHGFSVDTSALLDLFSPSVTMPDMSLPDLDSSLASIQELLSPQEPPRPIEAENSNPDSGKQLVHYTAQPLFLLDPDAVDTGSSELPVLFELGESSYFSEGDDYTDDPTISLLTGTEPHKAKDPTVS
Assay: decrease of HSF1-responsive luciferase luminescence – cell-based, NIH3T3, dose retest, confirmation (AID 2382);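 also: NIH3T3 fibroblasts with HSF1-driven luciferase reporter stressed by proteasome inhibitor MG132; luminescence from HSF1-driven luciferase expression after 8 hours of MG132 stress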
Type: functional
Calls of active or inactive are those of the source.
recorded_metric: EC50

Consider the reported EC50 for these compounds:
compound	endpoint_value
Cc1cc(N2CCN(c3ccc(F)cc3)CC2)nc2cc(O)ccc12	> 195 µM (not active)
O=C1N=C(N/N=C/c2cccs2)SC1Cc1ccc(Cl)c(Cl)c1 (stereo not given)	21 µM (active)
Cc1cccc(CS(=O)(=O)Cc2ccc(C(=O)NCc3cccs3)o2)c1	> 195 µM (not active)
CC(C)NC(=O)N(O)C1N(Cc2ccc3c(c2)OCO3)C(=S)SC1(C)C (stereo not given)	> 195 µM (not active)

Item: "Cc1cc(C)c(NC(=O)CSc2nncn2-c2cccnc2)c(C)c1" | System: Heat shock factor protein 1 (Mus musculus, UniProt P38532) | EC50: > 195 µM (not active)

Item: Cc1ccc2nc(-c3cccc(Br)c3)cc(C(=O)NCC3CCCO3)c2c1 (stereo not given) | System: Heat shock factor protein 1 (Mus musculus, UniProt P38532) | EC50: > 195 µM (not active)

Item: "CC1(C)CC(NC(=O)COc2ccccc2Cl)CC(C)(C)N1" | System: Heat shock factor protein 1 (Mus musculus, UniProt P38532) | EC50: 2.65 µM (active)

Item: O=C(CN1CC(c2ccccc2)CC1=O)NCc1ccc(F)cc1 (stereo not given) | System: Heat shock factor protein 1 (Mus musculus, UniProt P38532) | EC50: > 195 µM (not active)

Item: "CCOc1cc(/C=C2\C(=N)N3N=C(C)SC3=NC2=O)ccc1OCCOc1ccccc1" | System: Heat shock factor protein 1 (Mus musculus, UniProt P38532) | EC50: > 195 µM (not active)

Item: "COc1ccc(Cl)cc1S(=O)(=O)N1CCC(C(=O)NCCc2ccccc2)CC1" | System: Heat shock factor protein 1 (Mus musculus, UniProt P38532) | EC50: > 195 µM (not active)

====

Biological target: Short transient receptor potential channel 4 (Mus musculus, UniProt Q9QUQ5)
Sequence (Q9QUQ5 whole entry): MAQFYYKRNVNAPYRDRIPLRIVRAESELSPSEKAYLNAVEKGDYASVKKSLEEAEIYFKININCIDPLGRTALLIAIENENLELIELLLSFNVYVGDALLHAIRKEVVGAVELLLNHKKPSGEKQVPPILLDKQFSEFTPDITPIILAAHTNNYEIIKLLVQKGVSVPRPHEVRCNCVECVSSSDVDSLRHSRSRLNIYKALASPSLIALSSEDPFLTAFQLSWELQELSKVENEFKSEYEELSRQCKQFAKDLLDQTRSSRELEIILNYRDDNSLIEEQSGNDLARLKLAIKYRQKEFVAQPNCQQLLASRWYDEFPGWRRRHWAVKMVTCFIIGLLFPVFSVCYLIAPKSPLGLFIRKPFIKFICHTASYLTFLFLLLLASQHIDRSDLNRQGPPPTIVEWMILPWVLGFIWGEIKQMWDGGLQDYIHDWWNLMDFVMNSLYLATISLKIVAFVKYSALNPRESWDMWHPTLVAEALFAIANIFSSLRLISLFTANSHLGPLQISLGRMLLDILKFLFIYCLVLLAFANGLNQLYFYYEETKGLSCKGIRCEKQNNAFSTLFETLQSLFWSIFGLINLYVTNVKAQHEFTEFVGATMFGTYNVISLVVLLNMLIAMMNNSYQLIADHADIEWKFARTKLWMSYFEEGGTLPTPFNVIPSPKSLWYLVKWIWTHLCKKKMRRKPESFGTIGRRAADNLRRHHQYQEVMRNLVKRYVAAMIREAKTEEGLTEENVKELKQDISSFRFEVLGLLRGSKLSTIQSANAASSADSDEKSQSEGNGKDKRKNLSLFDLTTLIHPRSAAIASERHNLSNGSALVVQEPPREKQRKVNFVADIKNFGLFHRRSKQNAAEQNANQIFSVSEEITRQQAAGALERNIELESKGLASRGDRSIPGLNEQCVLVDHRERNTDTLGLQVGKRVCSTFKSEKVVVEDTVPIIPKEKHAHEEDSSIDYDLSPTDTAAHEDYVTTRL
Test: block of DAMGO-driven TRPC4 calcium entry – cell-based, HEK293 TRPC4/mu-opioid, Fluo-4 calcium, dose response (AID 434942);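 also: potency of inhibitors blocking the TRPC4 calcium response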
Type: functional
Active and inactive are the calls of the source.
Parameter: EC50. Scope: all listed entries.

Item: CC(COc1ccccc1)N1CCC(CO)(Cc2ccccc2)CC1 (stereo not drawn) | System: Short transient receptor potential channel 4 (Mus musculus, UniProt Q9QUQ5) | EC50: 5.96 µM (active)

Item: "N=c1c2c(n(Cc3ccccc3)c3c1CCC3)CCC2" | System: Short transient receptor potential channel 4 (Mus musculus, UniProt Q9QUQ5) | EC50: 3.35 µM (active)
